# Test system: Simliki forest virus
# protocolDetails: Antiviral activity in Vero cell cultures
# Format: cell-based
# experimentalSetup: Vero cells; values given as fractions
// values below are reported Minimum inhibitory concentration, Simliki forest virus
resultType: Minimum inhibitory concentration, Simliki forest virus

• C=CC(C)(C)c1cc(/C=C/C(=O)c2ccc(O)cc2)c(OC)cc1O = <1/100
• C=CCOc1ccc(C(=O)/C=C/c2cccc(OC)c2OC)cc1 = <1/100
• C=CCOc1ccc(C(=O)/C=C/c2cc(OC)c(OC)c(OC)c2)cc1 = 1/600
• COc1ccc(/C=C/C(=O)c2ccc(O)cc2)cc1OC = <1/100
• C=CCOc1ccc(C(=O)/C=C/c2cc(OC)c(OC)cc2OC)cc1 = 1/600
• C=CCOc1ccc(C(=O)/C=C/c2cc(OC)cc(OC)c2)cc1 [SBC-35ma, 3,5-dimethoxy-4′-allyloxychalcone] = <1/100
• C=CCOc1ccc(C(=O)/C=C/c2cc(OC)ccc2OC)cc1 = <1/100

* * *

# Tested on: Parainfluenza-3 Virus
# protocolDetails: Antiviral activity in Vero cell cultures
# Type: cell-based
# experimentalSetup: Vero cells; values given as fractions
// values below are reported Minimum inhibitory concentration, Parainfluenza-3 Virus
resultType: Minimum inhibitory concentration, Parainfluenza-3 Virus

- COc1ccc(/C=C/C(=O)c2ccccc2O)c(OC)c1 [2,4m2′hc]: <1/100
- C=CCOc1ccc(C(=O)/C=C/c2cc(OC)ccc2OC)cc1 [2,5m4′ac]: <1/100
- C=CCOc1ccc(C(=O)/C=C/c2ccc(OC)c(OC)c2)cc1 [34m4′ac, 3,4-dimethoxy-4′-allyloxychalcone]: 1/6000
- C=CC(C)(C)c1cc(/C=C/C(=O)c2ccc(O)cc2)c(OC)cc1O [Licochalcone A]: <1/100
- COc1ccc(/C=C/C(=O)c2ccc(O)cc2)cc1OC [3,4m4′hc]: <1/100
- COc1cccc(OC)c1/C=C/C(=O)c1ccc(O)cc1 [2,6m4′hc]: 1/600
- COc1ccc(/C=C/C(=O)c2ccccc2)c(OC)c1 [2,4mc]: <1/100

* * *

# System: Helicobacter pylori
# protocolDetails: Helicobacter species Assay (agar plate, MIC)
# Type: cell-based
# experimentalSetup: Helicobacter pylori; 20 strains of H. pylori; agar plate, 72 hours; read-out: MIC
resultType: MIC (µg/mL)

• COc1ccc(C(=O)/C=C/c2ccccc2[N+](=O)[O-])c(OC)c1OC = 16
• CCCCOc1cccc(C(=O)/C=C/c2ccc(OC)cc2OC)c1 = 16
• COc1cc(/C=C/C(=O)c2ccc([N+](=O)[O-])cc2)cc(OC)c1 = 16
• COc1cc(/C=C/C(=O)c2cccc(F)c2)cc(OC)c1 = 32

* * *

# System: cytomegalovirus AD-169 strain
# protocolDetails: Activity against cytomegalovirus in HEL cells (plaque formation)
# Format: cell-based
# experimentalSetup: virus plaque formation reduced by 50%, 100 PFU, values given as fractions
// values below are reported Antiviral activity IC50, AD-169 strain, Assay 1
resultType: Antiviral activity IC50, AD-169 strain, Assay 1

- COc1ccc(/C=C/C(=O)c2ccc(O)cc2)cc1OC [3,4m4′hc]: 1/45
- COc1ccc(/C=C/C(=O)c2ccccc2)c(OC)c1 [2,4mc]: <1/30
- C=CCOc1ccc(C(=O)/C=C/c2cc(OC)ccc2OC)cc1 [2,5m4′ac]: 1/35
- C=CCOc1ccc(C(=O)/C=C/c2cc(OC)cc(OC)c2)cc1 [SBC-35ma, 3,5-dimethoxy-4′-allyloxychalcone]: <1/60
- C=CCOc1ccc(C(=O)/C=C/c2c(OC)cc(OC)cc2OC)cc1 [2,4,6m4′ac]: 1/200
- COc1ccc(/C=C/C(=O)c2ccccc2O)c(OC)c1 [2,4m2′hc]: <1/60
- C=CCOc1ccc(C(=O)/C=C/c2ccc(OC)c(OC)c2)cc1 [34m4′ac, 3,4-dimethoxy-4′-allyloxychalcone]: <1/30
- COc1cccc(OC)c1/C=C/C(=O)c1ccc(O)cc1 [2,6m4′hc]: 1/150
- C=CC(C)(C)c1cc(/C=C/C(=O)c2ccc(O)cc2)c(OC)cc1O [Licochalcone A]: 1/15000
